Assignment: determine reported chemical recovery into PDMS for the given compounds.
experiment: chemical recovery into PDMS from spiked human plasma; higher = better extraction; conditions: pooled human plasma; extraction method: PES with PDMS; equilibration time (d): 3

Record CC(=O)CCCCn1c(=O)c2c(ncn2C)n(C)c1=O . Reported chemical recovery into PDMS: 24.5%

Record COCC(C)N(C(=O)CCl)c1c(C)csc1C (centres undefined) . Reported chemical recovery into PDMS: 46.1%

Record Cc1ccc(OP(=O)(Oc2ccc(C)cc2)Oc2ccc(C)cc2)cc1 [Tricresylphosphate] . Reported chemical recovery into PDMS: 56.1%

Record Clc1ccc(COC(Cn2ccnc2)c2ccc(Cl)cc2Cl)c(Cl)c1 (centres undefined) . Reported chemical recovery into PDMS: 34.9%

Record C[C@]12CCC(=O)C=C1[C@@H]1C[C@@H]1[C@H]1[C@@H]3[C@@H]4C[C@@H]4[C@@]4(CCC(=O)O4)[C@@]3(C)CC[C@@H]12 . Reported chemical recovery into PDMS: 45.7%

Record c1ccc2cc3ccccc3cc2c1 . Reported chemical recovery into PDMS: 79.7%

Record CCOP(=S)(OCC)Oc1cc(C)nc(C(C)C)n1 . Reported chemical recovery into PDMS: 34%

Record Clc1cc(Cl)c(-c2cc(Cl)c(Cl)cc2Cl)cc1Cl . Reported chemical recovery into PDMS: 86.4%

Record O=P1(N(CCCl)CCCl)NCCCO1 (centres undefined) [Cyclophosphamide] . Reported chemical recovery into PDMS: 2.5%

###

assay: chemical recovery from spiked human plasma; higher = better extraction; settings: pooled human plasma; extraction method: solvent precipitation (ACN + hexane)
Decision: chemical recovery compared against 60%; not below it gives 1, below it gives 0.

Ask: Threshold query (chemical recovery >= 60%) on CCC(CC)Nc1c([N+](=O)[O-])cc(C)c(C)c1[N+](=O)[O-]
Reply: 1

Ask: Threshold query (chemical recovery >= 60%) on CO/C=C(/C(=O)OC)c1ccccc1Oc1cc(Oc2ccccc2C#N)ncn1
Reply: 1

Ask: Threshold query (chemical recovery >= 60%) on CN(C)C(=O)Nc1ccc(Cl)c(Cl)c1
Reply: 1

Ask: Threshold query (chemical recovery >= 60%) on OCCN1CCN(CCC=C2c3ccccc3Sc3ccc(C(F)(F)F)cc32)CC1
Reply: 0

Ask: Threshold query (chemical recovery >= 60%) on O=P(OCCCl)(OCCCl)OCCCl [Tris(2-chloroethyl)phosphate]
Reply: 1

Ask: Threshold query (chemical recovery >= 60%) on C#CCOc1ccc(CCNC(=O)C(OCC#C)c2ccc(Cl)cc2)cc1OC (centres undefined)
Reply: 1

Ask: Threshold query (chemical recovery >= 60%) on CNC(=O)c1cc(Oc2ccc(NC(=O)Nc3ccc(Cl)c(C(F)(F)F)c3)cc2)ccn1
Reply: 1

Ask: Threshold query (chemical recovery >= 60%) on O=C(CC(C(=O)OC1CCCCC1)S(=O)(=O)O)OC1CCCCC1 (centres undefined) [Dicyclohexyl sulfosuccinate]
Reply: 1

Ask: Threshold query (chemical recovery >= 60%) on O=[N+]([O-])c1ccc(O)cc1
Reply: 1

Ask: Threshold query (chemical recovery >= 60%) on Cc1ccc(NC(=O)N(C)C)cc1Cl
Reply: 1

Ask: Threshold query (chemical recovery >= 60%) on Oc1nc(O)c2cn[nH]c2n1
Reply: 0

Ask: Threshold query (chemical recovery >= 60%) on C#CC(C)(C)NC(=O)c1cc(Cl)cc(Cl)c1 [Propyzamide]
Reply: 1

Ask: Threshold query (chemical recovery >= 60%) on CC(=O)c1c(C)c([N+](=O)[O-])c(C(C)(C)C)c([N+](=O)[O-])c1C
Reply: 0

Ask: Threshold query (chemical recovery >= 60%) on c1ccc2[nH]ccc2c1
Reply: 0

Ask: Threshold query (chemical recovery >= 60%) on COc1cc(O)c(C(=O)c2ccccc2)cc1S(=O)(=O)O
Reply: 1

Ask: Threshold query (chemical recovery >= 60%) on Brc1cc(Br)c(Oc2cc(Br)c(Br)cc2Br)c(Br)c1
Reply: 0

Ask: Threshold query (chemical recovery >= 60%) on COc1cc([C@@H]2c3cc4c(cc3[C@@H](O[C@@H]3O[C@@H]5CO[C@@H](C)O[C@H]5[C@H](O)[C@H]3O)[C@H]3COC(=O)[C@H]23)OCO4)cc(OC)c1O [Etoposide]
Reply: 0

Ask: Threshold query (chemical recovery >= 60%) on COC(=O)c1cc(C(=O)OC)cc(S(=O)(=O)O)c1 [Dimethyl-5-sulfoisophthalate]
Reply: 0

###

assay: chemical recovery from spiked human plasma; higher = better extraction; conditions: pooled human plasma; extraction method: SPE only (HLB 96-well)
quantity: chemical recovery (%)
Field: numeric (%). Do not append units.

Record COc1ccc(C(=O)CC(=O)c2ccc(C(C)(C)C)cc2)cc1 . Reported chemical recovery: 8.77

Record O=C1Nc2ccc(Cl)cc2C(c2ccccc2)=NC1O (stereo not given) . Reported chemical recovery: 38

Record NC(=O)N1c2ccccc2C(O)C(O)c2ccccc21 (stereo not given) [10,11-Dihydro-10,11-dihydroxycarbamazepine] . Reported chemical recovery: 44.9

Record COP(=O)(NC(C)=O)SC (stereo not given) [Acephate] . Reported chemical recovery: 5.48

Record c1ccc(-c2cccc3ccccc23)cc1 . Reported chemical recovery: 12.2

Record CCOP(=O)(OCC)OCC [Triethylphosphate] . Reported chemical recovery: 18.9

Record c1cc2ccc3cccc4ccc(c1)c2c34 . Reported chemical recovery: 19.5

Record Cc1cccc(C)c1N(Cn1cccn1)C(=O)C[S+](C)[O-] (stereo not given) . Reported chemical recovery: 50.3

Record NC(=O)C(F)(F)C(F)(F)F [Pentafluoropropionamide] . Reported chemical recovery: 0.923

Record CCCCCCCCn1sc(Cl)c(Cl)c1=O . Reported chemical recovery: 27.3

Record CCN(CCC#N)c1ccc(N=Nc2c(Br)cc([N+](=O)[O-])cc2Br)cc1 . Reported chemical recovery: 39.7

Record OC[C@@H](O)[C@@H](O)[C@H](O)[C@@H](O)CO . Reported chemical recovery: 3.85

Record Cc1cc(Cl)ccc1OCCCC(=O)O . Reported chemical recovery: 35.9

Record Oc1ccc(Cl)cc1Cl . Reported chemical recovery: 40.3

Record Nc1ccc(-c2ccc(N)cc2)cc1 . Reported chemical recovery: 13.2

Record c1ccc(COc2ccc3ccccc3c2)cc1 . Reported chemical recovery: 0.473

Record O=C(c1ccc(O)cc1O)c1ccc(O)cc1O [2,2',4,4'-Tetrahydroxybenzophenone] . Reported chemical recovery: 51.4

Record O=C(O)C(F)(F)C(F)(F)C(F)(F)C(F)(F)C(F)(F)C(F)(F)C(F)(F)C(F)(F)C(F)(F)F . Reported chemical recovery: 20.4

Record CN1CCN2c3ncccc3Cc3ccccc3C2C1 (stereo not given) . Reported chemical recovery: 30.4

Record COc1cc(OC)nc(NC(=O)NS(=O)(=O)N(C)S(C)(=O)=O)n1 . Reported chemical recovery: 41

###

assay: chemical recovery from spiked human plasma; higher = better extraction; details: pooled human plasma; extraction method: solvent precipitation (ACN + hexane)
Classification field. Basis: chemical recovery. Definitions: bottom: < 60%; middle: ≥ 60% and < 70%; top: ≥ 70%

Ask: Exercise: read the entry Clc1cc(Cl)c(-c2ccc(Cl)c(Cl)c2Cl)cc1Cl and state which class it falls under.
Reply: top

Ask: Exercise: read the entry C#CCN1C(=O)COc2cc(F)c(N3C(=O)C4=C(CCCC4)C3=O)cc21 and state which class it falls under.
Reply: bottom

Ask: Exercise: read the entry NC(=O)c1ccc(N)cc1 [4-Aminobenzamide] and state which class it falls under.
Reply: top

Ask: Exercise: read the entry CC[C@H]1OC(=O)[C@H](C)[C@@H](O[C@H]2C[C@@](C)(OC)[C@@H](O)[C@H](C)O2)[C@H](C)[C@@H](O[C@@H]2O[C@H](C)C[C@H](N(C)C)[C@H]2O)[C@](C)(O)C[C@@H](C)C(=O)[C@H](C)[C@@H](O)[C@]1(C)O and state which class it falls under.
Reply: middle

Ask: Exercise: read the entry c1ccc2cc3c(cc2c1)-c1cccc2cccc-3c12 and state which class it falls under.
Reply: bottom

Ask: Exercise: read the entry COC(=O)c1ccccc1C(=O)OC [Dimethylphthalate] and state which class it falls under.
Reply: middle

Ask: Exercise: read the entry COc1nc(C)nc(NC(=O)NS(=O)(=O)c2ccccc2CCC(F)(F)F)n1 and state which class it falls under.
Reply: top

Ask: Exercise: read the entry c1cc2cccc3c4cccc5cccc(c(c1)c23)c54 and state which class it falls under.
Reply: middle

Ask: Exercise: read the entry Nc1c(Cl)c(Cl)nc(C(=O)O)c1Cl and state which class it falls under.
Reply: middle

Ask: Exercise: read the entry CO/N=C(/C(=O)O)c1ccccc1CO/N=C(\C)c1cccc(C(F)(F)F)c1 and state which class it falls under.
Reply: top

Ask: Exercise: read the entry Nc1nc(N)nc(NC2CC2)n1 and state which class it falls under.
Reply: top

Ask: Exercise: read the entry CC(C)N(C(=O)COc1nnc(C(F)(F)F)s1)c1ccc(F)cc1 and state which class it falls under.
Reply: middle

Ask: Exercise: read the entry CN[C@H]1CC[C@@H](c2ccc(Cl)c(Cl)c2)c2ccccc21 and state which class it falls under.
Reply: top

Ask: Exercise: read the entry NC1CCCCC1 and state which class it falls under.
Reply: bottom

Ask: Exercise: read the entry CC(C)NCC(O)COc1ccc(CC(=O)O)cc1 (centres undefined) [Metoprolol acid] and state which class it falls under.
Reply: bottom

Ask: Exercise: read the entry CN(C)C(=O)Nc1ccccc1 and state which class it falls under.
Reply: top

Ask: Exercise: read the entry Cc1ccc(O)c(-n2nc3ccccc3n2)c1 and state which class it falls under.
Reply: bottom

Ask: Exercise: read the entry CNC1=C(c2cccc(C(F)(F)F)c2)C(=O)C(c2ccccc2)O1 (centres undefined) and state which class it falls under.
Reply: top

Ask: Exercise: read the entry COCCc1ccc(OCC(O)CNC(C)C)cc1 (centres undefined) and state which class it falls under.
Reply: top

Ask: Exercise: read the entry NNc1ccccc1 [Phenylhydrazine] and state which class it falls under.
Reply: bottom

Ask: Exercise: read the entry CO/C=C(/C(=O)O)c1ccccc1Oc1cc(Oc2ccccc2C#N)ncn1 and state which class it falls under.
Reply: top

Ask: Exercise: read the entry CC1CC(CC2CCC(N)C(C)C2)CCC1N (centres undefined) and state which class it falls under.
Reply: bottom

Ask: Exercise: read the entry O=C(O)C(F)(F)C(F)(F)C(F)(F)C(F)(F)C(F)(F)C(F)(F)C(F)(F)F and state which class it falls under.
Reply: top

Ask: Exercise: read the entry CC(=O)c1cc(C(C)(C)C)cc2c1CCC2(C)C [Celestolide] and state which class it falls under.
Reply: top

Ask: Exercise: read the entry O=C(Nc1ccc(Cl)cc1)Nc1ccc(Cl)c(Cl)c1 and state which class it falls under.
Reply: bottom

Ask: Exercise: read the entry O=C(O)c1ccccc1Nc1cccc(C(F)(F)F)c1 and state which class it falls under.
Reply: bottom

Ask: Exercise: read the entry COC(=O)c1ccc(C(=O)OC)cc1 [Dimethyl-terephthalate] and state which class it falls under.
Reply: middle

Ask: Exercise: read the entry CCC(=C(c1ccc(O)cc1)c1ccc(OCCN(C)C)cc1)c1ccccc1 [4-Hydroxytamoxifen] and state which class it falls under.
Reply: middle

Ask: Exercise: read the entry O=C(O)COc1ccc(Cl)cc1Cl and state which class it falls under.
Reply: top

Ask: Exercise: read the entry COc1ccc2[nH]c(SCc3ncc(C)c(OC)c3C)nc2c1 [Omeprazole-sulfide] and state which class it falls under.
Reply: top

Ask: Exercise: read the entry Oc1ccc(C2(c3ccc(O)cc3)c3ccccc3-c3ccccc32)cc1 and state which class it falls under.
Reply: bottom

Ask: Exercise: read the entry Nc1nc(NC2CC2)c2ncn([C@H]3C=C[C@@H](CO)C3)c2n1 and state which class it falls under.
Reply: top
